Tested on: HeLa
TEST: Inhibition of SERCA in human HeLa cells assessed as increase in cytosolic calcium level at 3.81 x 10^-11M measured over 300 secs by Fluo-4 NW dye based FLIPR analysis relative to control
Assay type: cell-based
inhibition: recorded values

MOLECULE: C/C=C(/C)C(=O)O[C@H]1C(C)=C2[C@H]([C@@H]1OC(=O)CCCCCCC)[C@@](C)(OC(C)=O)C[C@H](OC(=O)CCC)[C@@]1(O)[C@H]2OC(=O)[C@@]1(C)O [THAPSIGARGIN]
RECORDED_MEASUREMENT: -2.3 to 2.9%

MOLECULE: CCCCCCCC(=O)O[C@H]1[C@H]2C(=C(C)[C@@H]1OC(=O)[C@H](C)CC)[C@@H]1OC(=O)[C@@](C)(O)[C@@]1(O)[C@@H](OC(=O)CCC)C[C@]2(C)OC(C)=O
RECORDED_MEASUREMENT: -0.7 to 2.6%

MOLECULE: C/C=C(/C)C(=O)O[C@@H]1C[C@H]2C(=C1C)[C@@H]1OC(=O)[C@@](C)(O)[C@@]1(O)[C@@H](OC(=O)C=C(C)C)C[C@]2(C)OC(C)=O
RECORDED_MEASUREMENT: -2 to 1.7%

MOLECULE: CCCCCCCC(=O)O[C@H]1[C@H]2C(=C(C)[C@@H]1OC(=O)c1sccc1C)[C@@H]1OC(=O)[C@@](C)(O)[C@@]1(O)[C@@H](OC(=O)CCC)C[C@]2(C)OC(C)=O
RECORDED_MEASUREMENT: -2.2 to 3.1%

Now consider the entry below.
Enquiry: Look at this molecule and give its reported inhibition. `CCCCCCCC(=O)O[C@H]1[C@H]2C(=C(C)[C@@H]1OC(=O)CC(C)C)[C@@H]1OC(=O)[C@@](C)(O)[C@@]1(O)[C@@H](OC(=O)CCC)C[C@]2(C)OC(C)=O`
Return: -8 to 21.4%
